biological target: SMN Tudor domain (80-167 aa) with a C-terminal His6-tag (UniProt Q16637); assay: ITC; 2 mM or 5 mM ligand in the syringe injected into 200 uM or 300 uM SMN Tudor in the cell; 1x PBS, 25 °C; one site model with stoichiometry (N) fixed at 1
Sequence (Q16637 80-167): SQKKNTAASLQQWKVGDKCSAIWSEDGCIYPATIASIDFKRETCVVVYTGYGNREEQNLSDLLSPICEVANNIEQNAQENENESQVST
recorded_metric: Kd

Which Kd value belongs to SmD1 heptapeptide AGRGRGR, residues 96–102 of SmD1 ?
> 2 mM

###

biological target: SMN Tudor domain (SMN) (Homo sapiens, UniProt Q16637); construct: gene SMN1; SMN Tudor domain (80–167 aa), C-terminal His6-tag; assay: isothermal titration calorimetry (ITC), […] model, N fixed at […]; assay type: binding
Sequence (Q16637 80-167): as above
recorded_metric: pKd
The read-out pKd is expressed as -log10 of concentration in moles per litre.

For SMN Tudor domain (SMN) (Homo sapiens, UniProt Q16637), provide pKd of CNC(=N)NCCC[C@H](N)C(=O)O [MMA, Methylarginine (L-NMMA)] please.
2.74

###

target: SMN Tudor domain (SMN) (Homo sapiens); construct: gene SMN1; SMN Tudor domain (80–167 aa), C-terminal His6-tag; assay: isothermal titration calorimetry (ITC), […] model, N fixed at […]; format: binding; details: read-out: KD
recorded_metric: Kd (µM)
# output: bare number, implied unit µM

cpd_smiles=CN(C)C(=N)NCCC[C@H](N)C(=O)O value_observed=860

From here, focus on the item given below.
Form field - read-out: Kd; system: SMN Tudor domain (SMN) (Homo sapiens); submitted item: CN=C(NC)NCCC[C@H](N)C(=O)O
359
